Reported TGI values are given for each entry in this list.
test system: LOX IMVI melanoma; assay: NCI tumour cell line growth inhibition, 48 h

CN=CN(C)c1c2ccccc2nc2ccccc12: > 100 µM
CN1CCN(c2nc(NCCCCNc3ccnc4cc(Cl)ccc34)c3ccccc3n2)CC1: 4.19 µM
N#Cc1c(-c2ccc(Cl)cc2)c(C#N)c(=O)n(NS(=O)(=O)c2ccccc2)c1S: 50.6 µM
CN1CCN(c2cc3c(cc2F)c(=O)c(C(=O)O)cn3C2CC2)CC1CC#N (stereo not given): > 100 µM
NC(=NC1CCCCCCC1)c1ccc(N2CCN(c3ccc(C(N)=NC4CCCCCCC4)cc3)CC2)cc1: > 100 µM

Ask: Look up TGI for this compound: CC(=O)Nc1ccccc1C=C1c2ccccc2-c2ccccc21
Result: > 100 µM

Ask: Look up TGI for this compound: COc1ccc(C2C(=O)C(Cl)N2Nc2nc(C)cc(=O)[nH]2)cc1OC (stereo not given)
Result: > 100 µM

Ask: Look up TGI for this compound: COc1cc(-c2c(C#N)c(N)c(C#N)c3c2COc2ccccc2-3)cc(OC)c1OC
Result: > 100 µM

Ask: Look up TGI for this compound: CCN(CC)CCC1CCCCN1CC(=O)N1c2ccccc2NC(=O)c2ccccc21 (stereo not given)
Result: > 100 µM

Ask: Look up TGI for this compound: c1cc(CCN2CCCCC2)ccn1
Result: > 100 µM

###

Reported GI50 values are given for each entry in this list.
test system: TK-10 renal; assay: NCI tumour cell line growth inhibition, 48 h

CCc1cccc2c3c(sc12)C(c1ccc(Cl)cc1)C(C#N)=C(N)O3 (centres undefined): 3.18 µM
O=C1c2ccc3c4c5ccc(c24)C(=O)N1CCCOCCCCOCCCNCc1ccc(cc1)CNCCCOCCCCOCCCN(C3=O)C5=O: 1.03 µM
CCCCCCC#Cc1ccccc1C#CCO: 22.6 µM

Ask: Look up GI50 for this compound: CS(=O)(=O)c1ccc(-c2cnc(N)c(C(=O)Nc3ccccc3)n2)cc1
Result: 16.9 µM

Ask: Look up GI50 for this compound: NC(=O)c1cc([N+](=O)[O-])c(Cl)c([N+](=O)[O-])c1
Result: 1.91 µM

Ask: Look up GI50 for this compound: CC(C)(O)C1CCC(Nc2ccc3ncc(-c4cccc(C(F)(F)F)c4)n3n2)CC1 (centres undefined)
Result: 2.62 µM

###

Reported GI50 values are given for each entry in this list.
test system: CAKI-1 renal; experiment: NCI tumour cell line growth inhibition, 48 h

COc1ccn2c(C(C)=O)cc(C(=O)c3ccc4c(c3)Sc3ccccc3N4)c2c1: 52.7 nM
C[C@H]1[C@H](C)CC[C@]2(C(=O)N3CCN(C)CC3)CC[C@]3(C)C(=CC[C@@H]4[C@@]5(C)C/C(=C/c6cccnc6)C(=O)C(C)(C)[C@@H]5CC[C@]43C)[C@H]12: 1220 nM
CCCCCCCCCCC(O)[C@H]1CCC(C2CC[C@H]([C@H](O)CCCCCCCCCCC(O)CC3=CC(C)OC3=O)O2)O1 (stereo partly drawn): 4090 nM
Cc1ccc(/C=C2/SC(Nc3nc(-c4nc(NC5=NC(=O)/C(=C\c6ccc(C)cc6)S5)sc4C)c(C)s3)=NC2=O)cc1: 484 nM
COc1ccc2c(c1)c(-c1nc(-c3c[nH]c4ncccc34)cs1)cn2CCCCN1CCOCC1: 1800 nM
O=C1/C(=C/c2ccc([N+](=O)[O-])o2)Oc2ccc(Br)cc21: 2310 nM

Ask: Look up GI50 for this compound: NC(=NC1CCCCCCC1)c1ccc(N2CCN(c3ccc(C(N)=NC4CCCCCCC4)cc3)CC2)cc1
Result: 23100 nM

Ask: Look up GI50 for this compound: COc1ccc(C(=O)COc2cccc(/C=C3\CSc4ccccc4C3=O)c2)cc1
Result: 4070 nM
